Test system: primary cortical neurons
Experiment: Neurite outgrowth assay of primary cortical neurons (image-based HCS) against paclitaxel-induced neurotoxicity
Format: cell-based, mouse
Details: Mus musculus, Primary cortical neuron; test compound 10 nM + paclitaxel 1 μM; mean ± SE; read-out: C: Neurite outgrowth (% of control) of test compound (10 nM) + paclitaxel (1 μM)
As shown below, each of these molecules has a reported activity at 0.01 µM value.

molecule | unitsLabel | activity at 0.01 µM
Clc1ccc(/C=N/Nc2cc(N3CCCC3)nc(N3CCCC3)n2)cc1 [CSV0A024814] | % | 81
CN(C)c1ccc(/C=N/Nc2cc(N3CCCCC3)nc(N3CCCCC3)n2)cc1 [CSV0A041618] | % | 55
O=C(NNc1cc(N2CCOCC2)nc(N2CCOCC2)n1)c1ccccc1 [CSV0A051549] | % | 71
CCN(CC)c1cc(N/N=C/c2ccccc2O)nc(N(CC)CC)n1 [CSV0B018834] | % | 39
CN(C)c1cc(N/N=C/c2cccs2)nc(N(C)C)n1 [CSV0A055769] | % | 68
CN(C)c1cc(N/N=C/c2ccc(Cl)cc2Cl)nc(N(C)C)n1 [CSV0A047585] | % | 57
CCN(CC)c1cc(NNC(=O)c2ccccc2OC)nc(N(CC)CC)n1 [CSV0A008237] | % | 56
COc1ccc(/C=N/Nc2cc(N(C)C)nc(N(C)C)n2)cc1 [CSV0A034004] | % | 54
Oc1cccc(/C=N/Nc2cc(N3CCCC3)nc(N3CCCC3)n2)c1 [CSV0A055770] | % | 82

* * *

Target: hERG (Homo sapiens, UniProt Q12809)
Sequence (Q12809 whole entry): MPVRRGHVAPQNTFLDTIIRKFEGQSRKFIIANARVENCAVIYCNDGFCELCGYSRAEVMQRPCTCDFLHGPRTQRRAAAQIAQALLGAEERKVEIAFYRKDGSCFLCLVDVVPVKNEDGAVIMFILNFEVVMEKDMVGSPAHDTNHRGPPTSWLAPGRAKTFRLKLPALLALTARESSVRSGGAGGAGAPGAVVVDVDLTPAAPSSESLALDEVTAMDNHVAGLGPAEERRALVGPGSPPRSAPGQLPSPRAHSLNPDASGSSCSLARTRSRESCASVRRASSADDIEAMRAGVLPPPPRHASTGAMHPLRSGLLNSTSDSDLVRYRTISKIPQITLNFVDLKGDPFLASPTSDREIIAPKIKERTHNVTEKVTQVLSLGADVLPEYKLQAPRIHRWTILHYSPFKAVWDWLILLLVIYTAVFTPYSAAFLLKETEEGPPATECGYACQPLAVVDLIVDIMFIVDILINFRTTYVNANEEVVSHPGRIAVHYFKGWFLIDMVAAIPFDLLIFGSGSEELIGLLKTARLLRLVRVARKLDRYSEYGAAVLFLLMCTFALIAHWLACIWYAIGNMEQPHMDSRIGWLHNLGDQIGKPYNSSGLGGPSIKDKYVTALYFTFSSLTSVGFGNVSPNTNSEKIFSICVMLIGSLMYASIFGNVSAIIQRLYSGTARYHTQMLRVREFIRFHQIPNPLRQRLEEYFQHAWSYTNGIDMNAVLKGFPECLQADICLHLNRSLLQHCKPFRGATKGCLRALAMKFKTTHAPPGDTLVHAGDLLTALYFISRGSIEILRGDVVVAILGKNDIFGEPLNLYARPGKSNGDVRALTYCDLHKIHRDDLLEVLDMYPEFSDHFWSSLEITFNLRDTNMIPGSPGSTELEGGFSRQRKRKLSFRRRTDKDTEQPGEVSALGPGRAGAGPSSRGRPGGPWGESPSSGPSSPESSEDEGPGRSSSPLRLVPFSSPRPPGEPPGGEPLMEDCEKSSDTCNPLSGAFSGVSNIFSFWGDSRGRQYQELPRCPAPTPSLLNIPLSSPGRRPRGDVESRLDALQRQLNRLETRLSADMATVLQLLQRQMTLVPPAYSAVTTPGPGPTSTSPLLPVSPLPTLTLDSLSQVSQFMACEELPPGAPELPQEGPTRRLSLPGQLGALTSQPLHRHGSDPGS
Test: LeadProfilingScreen: Potassium Channel hERG
Assay type: binding

compoundStructureString | testSystem | unitsLabel | inhibition at 10 µM
O=P(O)(O)CCN1CCC(Nc2cc(N3CCOCC3)nc(NCc3cn(CCCO)nn3)n2)CC1 | hERG (Homo sapiens, UniProt Q12809) | % | -3

* * *

Test system: primary cortical neurons
Assay: Neurite outgrowth assay of primary cortical neurons (image-based HCS) against paclitaxel-induced neurotoxicity
Format: cell-based, mouse
Details: Mus musculus, Primary cortical neuron; test compound 10 nM + paclitaxel 1 μM; mean ± SE; read-out: C: Neurite outgrowth (% of control) of test compound (10 nM) + paclitaxel (1 μM)

compound | activity at 0.01 µM / %
C(=N\Nc1cc(N2CCCCCC2)nc(N2CCCCCC2)n1)/c1ccncc1 [CSV0A061667] | 82
Oc1ccc(/C=N/Nc2cc(N3CCOCC3)nc(N3CCOCC3)n2)cc1 [CSV0A013029] | 58
O=[N+]([O-])c1cccc(/C=N/Nc2cc(N3CCOCC3)nc(N3CCOCC3)n2)c1 [CSV0A024807] | 69
O=[N+]([O-])c1cc(/C=N/Nc2cc(N3CCCCCC3)nc(N3CCCCCC3)n2)cc2c1OCO2 [CSV0A024811] | 69
CN(C)c1cc(N/N=C/c2cccc(O)c2)nc(N(C)C)n1 [CSV0A021190] | 43
COc1cc(/C=N/Nc2cc(N3CCCCC3)nc(N3CCCCC3)n2)ccc1O [CSV0B006088] | 59
CCCN(CCC)c1cc(N/N=C/c2ccc(Cl)cc2)nc(N(CCC)CCC)n1 [CSV0A061665] | 37
C(=N\Nc1cc(N2CCOCC2)nc(N2CCOCC2)n1)/c1ccncc1 [CSV0A024809] | 77

* * *

Tested on: mouse primary DRG neurons
Experiment: Neurite outgrowth assay of DRG neurons (image-based HCS) against paclitaxel-induced neurotoxicity
Assay type: cell-based
Conditions: Mus musculus, DRG neuron, Table S2; test compound 1000 nM + paclitaxel 50 nM minus paclitaxel 50 nM; read-out: Neuroprotection rate = (A-B) ± S.E.M [%]

molecule | unitsLabel | activation at 1 µM
CCOP(=O)(CCN1CCC(Nc2cc(N3CCOCC3)nc(NCc3cn(CCC(C)O)nn3)n2)CC1)OCC (stereo not shown) [CN014] | % | 9
CCOP(=O)(CCN1CCC(Nc2cc(N3CCOCC3)nc(NCc3cn(CCCO)nn3)n2)CC1)OCC [CN012] | % | 9
COC(=O)CCN1CCC(Nc2cc(N3CCOCC3)nc(NCc3cn(CCCO)nn3)n2)CC1 [CN009] | % | 15
O=C(CCNC(=O)C1(O)CC(O)C(O)C(O)C1)N1CCC(Nc2cc(N3CCOCC3)nc(NCc3cn(CCCNCCO)nn3)n2)CC1 (stereo not shown) [CN007] | % | 7
O=P(O)(O)CCN1CCC(Nc2cc(N3CCOCC3)nc(NCc3ccc(CCO)cc3)n2)CC1 [CN019] | % | -2
COC(=O)CCOCCCn1cc(CNc2nc(NC3CCN(CCC(=O)OC)CC3)cc(N3CCOCC3)n2)nn1 [CN011] | % | 4
COC(=O)CCOCCCn1cc(CNc2nc(NC3CCN(Cc4ccccc4)CC3)cc(N3CCOCC3)n2)nn1 [CN002] | % | -4
CCOP(=O)(CCN1CCC(Nc2cc(N3CCOCC3)nc(NCc3cn(CCCOCCC(=O)OC)nn3)n2)CC1)OCC [CN015] | % | 3
O=P(O)(O)CCN1CCC(Nc2cc(N3CCOCC3)nc(NCc3cn(CCCO)nn3)n2)CC1 [CN016] | % | 21
COCCCn1cc(CNc2nc(NC3CCN(CCC(=O)OC)CC3)cc(N3CCOCC3)n2)nn1 [CN010] | % | 5
NCCCn1cc(CNc2nc(NC3CCN(C(=O)CCNC(=O)C4(O)CC(O)C(O)C(O)C4)CC3)cc(N3CCOCC3)n2)nn1 (stereo not shown) [CN006] | % | 4
CCOP(=O)(CCN1CCC(Nc2cc(N3CCOCC3)nc(NCc3ccc(CCO)cc3)n2)CC1)OCC [CN018] | % | 3
CCOP(=O)(CCN1CCC(Nc2cc(N3CCOCC3)nc(NCc3cn(CCC(C)(C)O)nn3)n2)CC1)OCC [CN013] | % | 6
CSCCCn1cc(CNc2nc(NC3CCN(Cc4ccccc4)CC3)cc(N3CCOCC3)n2)nn1 [CN003] | % | 1
OCCCn1cc(CNc2nc(NC3CCN(Cc4ccccc4)CC3)cc(N3CCOCC3)n2)nn1 [CN004] | % | 1
COC(=O)CCOCCCn1cc(CNc2nc(NC3CCN(Cc4ccc5ccccc5c4)CC3)cc(N3CCOCC3)n2)nn1 [CN005] | % | -3
O=C(O)Cn1cc(CNc2nc(NC3CCN(Cc4ccccc4)CC3)cc(N3CCOCC3)n2)nn1 [CN001] | % | -6
NCCOCCn1cc(CNc2nc(NC3CCN(C(=O)CCNC(=O)C4(O)CC(O)C(O)C(O)C4)CC3)cc(N3CCOCC3)n2)nn1 (stereo not shown) [CN008] | % | 4
COC(=O)CCN1CCC(Nc2cc(N3CCOCC3)nc(NCCCCCCO)n2)CC1 [CN017] | % | 1

* * *

Target: CYP 1A2 (Homo sapiens)
Construct: host or cells: baculovirus-infected insect cells (supersomes)
Sequence (P05177 whole entry): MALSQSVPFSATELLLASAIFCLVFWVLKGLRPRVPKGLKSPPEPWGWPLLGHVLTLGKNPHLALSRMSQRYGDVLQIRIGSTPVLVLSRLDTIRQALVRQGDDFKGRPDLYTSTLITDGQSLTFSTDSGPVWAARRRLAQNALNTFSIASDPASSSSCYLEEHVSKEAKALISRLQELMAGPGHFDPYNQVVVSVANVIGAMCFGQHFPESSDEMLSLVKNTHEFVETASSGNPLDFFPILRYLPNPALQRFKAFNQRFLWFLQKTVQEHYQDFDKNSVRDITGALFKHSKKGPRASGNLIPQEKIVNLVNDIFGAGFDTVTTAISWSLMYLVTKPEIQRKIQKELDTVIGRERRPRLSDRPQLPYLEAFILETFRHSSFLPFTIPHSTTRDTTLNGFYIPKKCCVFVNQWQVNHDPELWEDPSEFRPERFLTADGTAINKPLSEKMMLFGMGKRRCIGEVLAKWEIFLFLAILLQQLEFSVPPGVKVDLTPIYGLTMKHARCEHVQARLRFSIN
Assay: Cytochrome P450 testing, CYP 1A2
Assay type: in vitro ADME
Conditions: phenacetin O-deethylation; read-out: Concentration of inhibition (IC50), CYP 1A2
measureName: IC50

molecule | testSystem | testResult
O=P(O)(O)CCN1CCC(Nc2cc(N3CCOCC3)nc(NCc3cn(CCCO)nn3)n2)CC1 [CN016] | CYP 1A2 (Homo sapiens) | > 100 µM

* * *

Target: CYP 3A4 (Homo sapiens, UniProt P08684)
Construct: host or cells: baculovirus-infected insect cells (supersomes)
Sequence (P08684 whole entry): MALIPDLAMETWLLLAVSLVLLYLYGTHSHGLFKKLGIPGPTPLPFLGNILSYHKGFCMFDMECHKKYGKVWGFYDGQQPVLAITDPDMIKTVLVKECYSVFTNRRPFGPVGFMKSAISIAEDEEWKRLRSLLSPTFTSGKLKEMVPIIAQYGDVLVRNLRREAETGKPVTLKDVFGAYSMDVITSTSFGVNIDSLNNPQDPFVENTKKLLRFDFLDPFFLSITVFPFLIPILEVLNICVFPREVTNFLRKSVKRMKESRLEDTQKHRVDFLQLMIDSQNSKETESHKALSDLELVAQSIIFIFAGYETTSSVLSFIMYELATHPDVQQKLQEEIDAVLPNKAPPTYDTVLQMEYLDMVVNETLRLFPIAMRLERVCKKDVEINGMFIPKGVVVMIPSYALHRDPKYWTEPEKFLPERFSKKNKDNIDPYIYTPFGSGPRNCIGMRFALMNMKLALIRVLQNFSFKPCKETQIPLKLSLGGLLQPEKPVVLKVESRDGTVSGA
Assay: Cytochrome P450 testing, CYP 3A4
Type: in vitro ADME
Conditions: testosterone 6-hydroxylation; read-out: Concentration of inhibition (IC50), CYP 3A4
Text: Cytochrome P450 testing of CN016 The effects of CN016 on the activity of six specific human liver cytochrome P450 isozymes (CYP 1A2, 2C9, 2C19, 2D6, 2E1, 3A4) expressed in baculovirus-infected insect cell supersomes were studied. […]
pIC50: −log10 of the molar value.
measureName: pIC50

compoundStructureString | testResult
O=P(O)(O)CCN1CCC(Nc2cc(N3CCOCC3)nc(NCc3cn(CCCO)nn3)n2)CC1 | < 4.00

* * *

As shown below, each of these compounds has a reported activity at 0.01 µM value.
Test system: primary cortical neurons
Experiment: Synaptogenesis assay of primary cortical neurons (image-based HCS) against paclitaxel-induced neurotoxicity
Assay type: cell-based, mouse
Conditions: Mus musculus, Primary cortical neuron; test compound 10 nM + paclitaxel 1 μM; mean ± SE; read-out: A: Synaptogenesis (% of control) of test compound (10 nM) + paclitaxel (1 μM)
measureName: activity at 0.01 µM (%)

compound | measureName | testResult
CN(C)c1ccc(/C=N/Nc2cc(N3CCCCC3)nc(N3CCCCC3)n2)cc1 [CSV0A041618] | activity at 0.01 µM | 83
CCN(CC)c1cc(N/N=C/c2ccc(O)c(OC)c2)nc(N(CC)CC)n1 [CSV0B009489] | activity at 0.01 µM | 34
CCCN(CCC)c1cc(N/N=C/c2ccc(Cl)cc2)nc(N(CCC)CCC)n1 [CSV0A061665] | activity at 0.01 µM | 27
O=[N+]([O-])c1ccc(/C=N/Nc2cc(N3CCCCC3)nc(N3CCCCC3)n2)cc1 [CSV0A011998] | activity at 0.01 µM | 75
CN(C)c1cc(N/N=C/c2cccc([N+](=O)[O-])c2)nc(N(C)C)n1 [CSV0A027458] | activity at 0.01 µM | 73
CCN(CC)c1cc(NNC(=O)c2ccccc2OC)nc(N(CC)CC)n1 [CSV0A008237] | activity at 0.01 µM | 45
CN(C)c1cc(NNC(=O)c2ccccc2O)nc(N(C)C)n1 [CSV0A2327S0] | activity at 0.01 µM | 42
CN(C)c1cc(N/N=C/c2ccc(Cl)cc2)nc(N(C)C)n1 [CSV0A027459] | activity at 0.01 µM | 35
CCN(CC)c1cc(NNC(=O)c2ccc(C(C)(C)C)cc2)nc(N(CC)CC)n1 [CSV0B008884] | activity at 0.01 µM | 35
CN(C)c1ccc(/C=N/Nc2cc(N3CCCC3)nc(N3CCCC3)n2)cc1 [CSV0A027460] | activity at 0.01 µM | 47
CC(C)(C)c1ccc(C(=O)NNc2cc(N3CCOCC3)nc(N3CCOCC3)n2)cc1 [CSV0B026196] | activity at 0.01 µM | 36
C(=N\Nc1cc(N2CCCCCC2)nc(N2CCCCCC2)n1)/c1ccncc1 [CSV0A061667] | activity at 0.01 µM | 40
Oc1ccc(/C=N/Nc2cc(N3CCOCC3)nc(N3CCOCC3)n2)cc1 [CSV0A013029] | activity at 0.01 µM | 72
Clc1ccc(/C=N/Nc2cc(N3CCCCCC3)nc(N3CCCCCC3)n2)cc1 [CSV0A027457] | activity at 0.01 µM | 51
Oc1ccccc1/C=N/Nc1cc(N2CCOCC2)nc(N2CCOCC2)n1 [CSV0B002764] | activity at 0.01 µM | 48
CCN(CC)c1ccc(/C=N/Nc2cc(N3CCCCC3)nc(N3CCCCC3)n2)cc1 [CSV0A023090] | activity at 0.01 µM | 82
CCOc1ccc(Nc2nc(/N=C/c3c(OC)c(C(=O)Nc4ccccc4C)cc4ccccc34)c([N+](=O)[O-])c(NCc3ccccc3)n2)cc1 [CSVOD047961] | activity at 0.01 µM | 30
COc1ccccc1/C=N/Nc1cc(N2CCCC2)nc(N2CCCC2)n1 [CSV0A055771] | activity at 0.01 µM | 36
CCCN(CCC)c1cc(N/N=C/c2cc(Br)ccc2O)nc(N(CCC)CCC)n1 [CSV0A020330] | activity at 0.01 µM | 22
Clc1ccc(/C=N/Nc2cc(N3CCCC3)nc(N3CCCC3)n2)cc1 [CSV0A024814] | activity at 0.01 µM | 46
O=[N+]([O-])c1cc(/C=N/Nc2cc(N3CCCCCC3)nc(N3CCCCCC3)n2)cc2c1OCO2 [CSV0A024811] | activity at 0.01 µM | 52
CN(C)c1cc(N/N=C/c2cccc(O)c2)nc(N(C)C)n1 [CSV0A021190] | activity at 0.01 µM | 37
COc1ccc(/C=N/Nc2cc(N(C)C)nc(N(C)C)n2)cc1 [CSV0A034004] | activity at 0.01 µM | 65
CN(C)c1ccc(/C=N/Nc2cc(N3CCOCC3)nc(N3CCOCC3)n2)cc1 [CSV0A041617] | activity at 0.01 µM | 30
Cc1ccccc1C(=O)NNc1cc(N2CCOCC2)nc(N2CCOCC2)n1 [CSV0A062712] | activity at 0.01 µM | 52
COc1ccccc1/C=N/Nc1cc(N2CCOCC2)nc(N2CCOCC2)n1 [CSV0A013031] | activity at 0.01 µM | 57
CC(C)(C)c1ccc(C(=O)NNc2cc(N3CCCC3)nc(N3CCCC3)n2)cc1 [CSV0A062713] | activity at 0.01 µM | 33
C(=N\Nc1cc(N2CCOCC2)nc(N2CCOCC2)n1)/c1ccncc1 [CSV0A024809] | activity at 0.01 µM | 38
COc1cc(/C=N/Nc2cc(N3CCCCC3)nc(N3CCCCC3)n2)ccc1O [CSV0B006088] | activity at 0.01 µM | 45
CN(C)c1cc(N/N=C/c2cccs2)nc(N(C)C)n1 [CSV0A055769] | activity at 0.01 µM | 83
CN(C)c1cc(NNC(=O)c2ccc(Cl)cc2)nc(N(C)C)n1 [CSV0A023089] | activity at 0.01 µM | 38
Oc1ccccc1/C=N/Nc1cc(N2CCCCC2)nc(N2CCCCC2)n1 [CSV0B023377] | activity at 0.01 µM | 42
CN(C)c1cc(N/N=C/c2cc3c(c([N+](=O)[O-])c2)OCO3)nc(N(C)C)n1 [CSV0A047583] | activity at 0.01 µM | 66
COc1ccccc1/C=N/Nc1cc(N2CCCCC2)nc(N2CCCCC2)n1 [CSV0A061666] | activity at 0.01 µM | 41
CN(C)c1cc(N/N=C/c2ccc(Cl)cc2Cl)nc(N(C)C)n1 [CSV0A047585] | activity at 0.01 µM | 67
